assay: Pharmacokinetics and colon distribution in rats; assay type: in vivo, male Wistar rats; settings: male, Wistar, colon, po; rat, 5 mg/kg p.o., 12 hr; read-out: Mean concentration, Colon
QUANTITY_NAME: concentration at 12 h (ng/g)
The reply should contain only the number, in ng/g.

So for C#Cc1cc(Nc2nccc(Oc3ccc(NC(=O)Nc4cc(C(C)(C)C)nn4-c4ccc(C)cc4)c4ccccc34)n2)cc(C(=O)NCCOCCOCCOC)c1 , the logged concentration at 12 h turned out to be 597

###

test: Pharmacokinetics and colon distribution in rats; assay type: in vivo, male Wistar rats; settings: male, Wistar, plasma; Rat, 0.25 mg/kg intravenous
QUANTITY_NAME: half-life (h)
The figure you give is taken to be in h; do not add the unit.

Entry under test: C#Cc1cc(Nc2nccc(Oc3ccc(NC(=O)Nc4cc(C(C)(C)C)nn4-c4ccc(C)cc4)c4ccccc34)n2)cc(C(=O)NCCOCCOCCOC)c1 . Its half-life was 2.2
